Data provenance: ChEMBL document CHEMBL5143557

System: HepG2
EXPERIMENTAL DETAILS: Antiproliferative activity against human HepG2 cells after 48 hrs by MTT assay
Type: functional, cell-based
SETTINGS: HepG2, 48 h
// IC50 lookup, one value per entry
Number only, in µM; omit the unit.

CC(=O)[C@]1(O)CC[C@@]2(O)[C@]1(C)[C@H](OC(=O)/C=C(\C)C(C)C)C[C@@H]1[C@@]3(C)CC[C@H](O[C@@H]4OC[C@@H](O)[C@H](O)[C@H]4O)CC3=CC[C@]12O :: 90.9
C[C@H](OC(=O)c1cccnc1)[C@]1(O)CC[C@@]2(O)[C@]1(C)[C@H](OC(=O)/C=C/c1ccccc1)C[C@@H]1[C@@]3(C)CC[C@H](O)CC3=CC[C@]12O [GAGAMININ] :: 65
CC(=O)O[C@@H]1[C@@H](OC(C)=O)[C@H](C)O[C@@H](O[C@H]2CC[C@@]3(C)C(=CC[C@]4(O)[C@@H]3C[C@@H](OC(=O)/C=C(\C)C(C)C)[C@@]3(C)[C@]4(O)CC[C@@]3(O)C(C)=O)C2)[C@@H]1OC(C)=O :: 72.8
CC(=O)O[C@@H]1[C@@H](OC(C)=O)[C@H](C)O[C@@H](O[C@H]2CC[C@@]3(C)C(=CC[C@]4(O)[C@@H]3C[C@@H](OC(=O)c3ccc(O)cc3)[C@@]3(C)[C@]4(O)CC[C@@]3(O)C(C)=O)C2)[C@@H]1OC(C)=O :: 41.4
CC(=O)[C@]1(O)CC[C@@]2(O)[C@]1(C)[C@H](OC(=O)/C=C(\C)C(C)C)C[C@@H]1[C@@]3(C)CC[C@H](O)CC3=CC[C@]12O [CAUDATIN] :: 65.9
CC(=O)[C@]1(O)CC[C@@]2(O)[C@]1(C)[C@H](OC(=O)/C=C(\C)C(C)C)C[C@@H]1[C@@]3(C)CC[C@H](O[C@H]4C[C@H](O)[C@H](O)CO4)CC3=CC[C@]12O :: 39.8
CC(=O)O[C@@H]1[C@@H](O[C@H]2CC[C@@]3(C)C(=CC[C@]4(O)[C@@H]3C[C@@H](OC(=O)/C=C(\C)C(C)C)[C@@]3(C)[C@]4(O)CC[C@@]3(O)C(C)=O)C2)OC[C@@H](OC(C)=O)[C@H]1OC(C)=O :: 52.8

Turning now to a further compound:
Field IC50 (system: HepG2) for entry CC(=O)OC[C@H]1O[C@H](O[C@H]2CC[C@@]3(C)C(=CC[C@]4(O)[C@@H]3C[C@@H](OC(=O)/C=C(\C)C(C)C)[C@@]3(C)[C@]4(O)CC[C@@]3(O)C(C)=O)C2)[C@@H](OC(C)=O)[C@@H](OC(C)=O)[C@@H]1OC(C)=O = 23.7
